target: ATX (Homo sapiens, UniProt Q13822); construct: ATX activity was detected by detecting LPA production in pooled human plasma; from tissue; host or cells: pooled human plasma (heparin-anticoagulated whole blood, centrifuged); experiment: ATX inhibitory activity: LPA production in pooled human plasma, LC-MS-MS; format: biochemical; conditions: LPA 18:2 readout, 37° C. 2 h, read-out: Inhibitory activity against ATX receptor, LPA 18:2 IC50
Parameter class (string): assigned from measured IC50. Ranges: Low = under 3 nM, Medium = from 3 nM up to 6 nM, High = 6 nM and over

Previously resolved entries follow.
molecule	assaySystem	groupLabel
C#Cc1ccc2c(c1)CC(Nc1ncc(-c3nnc(CC(=O)N4CCc5[nH]nnc5C4)o3)cn1)C2 (stereo not drawn)	ATX (Homo sapiens, UniProt Q13822)	Low
O=C(Cc1nnc(-c2cnc(N[C@@H]3Cc4ccc(C(F)(F)F)cc4C3)nc2)o1)N1CCc2[nH]nnc2C1	ATX (Homo sapiens, UniProt Q13822)	Low
O=C(Cc1nnc(-c2cnc(N[C@H]3Cc4ccc(-c5ccoc5)cc4C3)nc2)o1)N1CCc2[nH]nnc2C1 (single isomer, unassigned)	ATX (Homo sapiens, UniProt Q13822)	Low
O=C(N1CCc2[nH]nnc2C1)C1(c2nnc(-c3cnc(NC4Cc5ccccc5C4)nc3)o2)CC1	ATX (Homo sapiens, UniProt Q13822)	Medium
N#Cc1nn(CC(=O)N2CCc3[nH]nnc3C2)cc1-c1cnc(NC2Cc3ccccc3C2)nc1	ATX (Homo sapiens, UniProt Q13822)	High

// query Any idea which band "O=C(Cc1nnc(-c2cnc(NC3Cc4cc5c(cc4C3)CC5)nc2)o1)N1CCc2[nH]nnc2C1" is in?
// result Low

// query Class for "O=C(Cc1nnc(-c2cnc(NC3Cc4cc5c(cc4C3)OCO5)nc2)o1)N1CCc2nn[nH]c2C1" ?
// result Low

// query Please indicate the class for "O=C(Cc1nnc(-c2cnc(N[C@@H]3Cc4ccc(C(F)F)cc4C3)nc2)o1)N1CCc2[nH]nnc2C1" based on its IC50.
// result Medium

// query For this molecule, which bin applies? "CNC(=O)c1nn(CC(=O)N2CCc3[nH]nnc3C2)cc1-c1cnc(NC2Cc3ccccc3C2)nc1"
// result Medium

// query Which bin should I file CC(F)(C(=O)N1CCc2[nH]nnc2C1)c1nnc(-c2cnc(NC3Cc4ccccc4C3)nc2)o1 (stereo not drawn) under?
// result High

// query Quick check: band for C[C@@](F)(C(=O)N1CCc2[nH]nnc2C1)c1nnc(-c2cnc(NC3Cc4ccccc4C3)nc2)o1 (single isomer, unassigned)
// result Medium

// query Please report the category associated with O=C(Cc1nnc(-c2cnc(NC3Cc4ccc(C5CC5)cc4C3)nc2)o1)N1CCc2[nH]nnc2C1 (stereo not drawn) , nothing else.
// result High

// query State the band of "N#Cc1nc(CC(=O)N2CCc3[nH]nnc3C2)oc1-c1cnc(NC2Cc3ccccc3C2)nc1"
// result Medium
